Target: Tyrosyl-tRNA synthetase, putative (Trypanosoma cruzi (strain CL Brener))
Sequence (whole entry): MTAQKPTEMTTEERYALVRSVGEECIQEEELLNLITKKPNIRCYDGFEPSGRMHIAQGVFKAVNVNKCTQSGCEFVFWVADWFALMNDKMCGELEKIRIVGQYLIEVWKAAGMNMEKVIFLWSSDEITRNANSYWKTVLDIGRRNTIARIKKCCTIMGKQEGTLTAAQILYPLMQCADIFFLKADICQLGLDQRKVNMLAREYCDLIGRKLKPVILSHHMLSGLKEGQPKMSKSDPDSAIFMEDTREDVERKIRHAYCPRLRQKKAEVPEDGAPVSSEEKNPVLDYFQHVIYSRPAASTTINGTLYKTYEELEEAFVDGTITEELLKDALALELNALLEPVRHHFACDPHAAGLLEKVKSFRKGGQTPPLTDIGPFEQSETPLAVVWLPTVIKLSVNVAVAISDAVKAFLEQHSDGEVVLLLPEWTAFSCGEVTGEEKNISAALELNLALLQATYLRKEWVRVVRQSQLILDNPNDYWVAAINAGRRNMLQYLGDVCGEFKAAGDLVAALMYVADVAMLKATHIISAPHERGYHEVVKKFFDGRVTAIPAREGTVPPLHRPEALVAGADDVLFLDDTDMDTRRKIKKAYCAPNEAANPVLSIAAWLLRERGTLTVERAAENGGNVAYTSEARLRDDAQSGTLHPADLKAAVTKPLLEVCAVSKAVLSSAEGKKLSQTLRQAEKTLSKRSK
Assay: Trypanosoma cruzi tyrosyl tRNA synthetase (TcYRS) SOP
Assay type: functional
Set-up: scale not given: direction of the effect not stated beside the values
Conditions: 30 µM
Exercise: state measured Percent Effect for each of the compounds provided.
Numbers only, in %.

Please review the following examples before continuing.
| compound | Percent Effect, % |
| --- | --- |
| NCC1(c2cccc(Br)c2)CCOCC1 | -6.1 |
| Cc1ncccc1OCC(=O)N1CCN[C@H]2CS(=O)(=O)C[C@H]21 | 18.5 |
| CCOCC(O)CN1CCN(C(=O)Cc2ccccc2C)CC1 (configuration not stated) | 9.76 |
| COc1ccc(-c2n[nH]cc2C2SCC(=O)Nc3[nH]ncc32)cc1 (configuration not stated) | 7.79 |
| Cc1nc(N(C)C)nc2c1COCC21CCN(CC2CC2)C1 (configuration not stated) | 6.1 |
| O=C(Nc1cccnc1)[C@H]1COC[C@H]2CN(C3CCCC3)C[C@H]21 | 11 |

Consider the additional compound presented here.
stdin: # return recorded Percent Effect for entry CN(C)c1ncc2c(n1)C1(CCN(Cc3ccccc3)C1)COC2 (configuration not stated)
stdout: 3.7
